Hi there, I'd appreciate the recorded half-life for every entry that follows.
# measurement-description: Half life in rhesus monkey at 2 mg/kg, iv or 10 mg/kg, po
# Assay type: ADME, organism-based, Macaca mulatta
# stated-conditions: in vivo
One number for each entry, in h.

[in] Requested read-out: half-life. Entry: O=C(c1nccc2[nH]cnc12)N1CCC(F)(F)[C@@H](Oc2ccc3ccccc3n2)C1
[out] 2

Now for another entry.
[in] Requested read-out: half-life. Entry: O=C(c1cccn2cncc12)N1CCC(F)(F)[C@@H](Oc2ccc3ccccc3n2)C1
[out] 0.8

----------
# measurement-description: Intrinsic clearance in human liver microsomes
# Type: ADME
# stated-conditions: read-out: CLH
property-label: CLint scaled (mL/min/kg)
Give bare numbers, in mL/min/kg.

[in] Requested read-out: CLint scaled. Entry: O=C(c1nccc2[nH]cnc12)N1CCC(F)(F)[C@@H](Oc2ccc3ccccc3n2)C1
[out] 55

Now for another entry.
[in] Requested read-out: CLint scaled. Entry: O=C(c1cccn2cncc12)N1CCC(F)(F)[C@@H](Oc2ccc3ccccc3n2)C1
[out] 62

----------
# assay-target: Orexin/Hypocretin receptor type 1 (Rattus norvegicus, UniProt P56718)
# Sequence (P56718 whole entry): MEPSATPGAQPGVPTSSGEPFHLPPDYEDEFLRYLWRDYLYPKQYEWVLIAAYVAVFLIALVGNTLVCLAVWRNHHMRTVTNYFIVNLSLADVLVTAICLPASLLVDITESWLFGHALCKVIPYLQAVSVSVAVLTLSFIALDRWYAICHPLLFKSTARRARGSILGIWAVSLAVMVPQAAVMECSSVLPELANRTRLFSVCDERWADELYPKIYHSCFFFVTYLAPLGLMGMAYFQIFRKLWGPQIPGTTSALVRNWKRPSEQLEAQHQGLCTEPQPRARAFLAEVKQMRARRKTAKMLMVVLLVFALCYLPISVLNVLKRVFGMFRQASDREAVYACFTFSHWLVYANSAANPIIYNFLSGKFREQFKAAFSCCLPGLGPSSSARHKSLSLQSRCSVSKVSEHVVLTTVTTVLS
# measurement-description: Antagonist activity at rat OX1 receptor assessed as inhibition of Ala-6,12 orexin-A-induced calcium increase preincubated for 5 mins prior to Ala-6,12 orexin-A addition measured at 1 sec intervals for 1 min by Fluo-4AM dye-based FLIPR assay
Hi there, I'd appreciate the recorded pIC50 for every entry that follows.
Numbers only, as −log10 of the molar value.

State the recorded pIC50 for every item in the following list.
1. O=C(c1ccccc1-n1nccn1)N1CCC(F)(F)[C@@H](Oc2ccc3ccccc3n2)C1
2. O=C(c1nccc2[nH]cnc12)N1CCC(F)(F)[C@@H](Oc2ccc3ccccc3n2)C1

[out]
[7.96, 7.80]

----------
# measurement-description: Half life in rat at 2 mg/kg, iv or 10 mg/kg, po
# Assay type: ADME, organism-based
# stated-conditions: in vivo
property-label: half-life (h)
Numbers only, in h.

[in] Requested read-out: half-life. Entry: O=C(c1nccc2[nH]cnc12)N1CCC(F)(F)[C@@H](Oc2ccc3ccccc3n2)C1
[out] 3.2

---
[in] Requested read-out: half-life. Entry: O=C(c1cccn2cncc12)N1CCC(F)(F)[C@@H](Oc2ccc3ccccc3n2)C1
[out] 2.8

----------
# measurement-description: Clearance in dog at 0.5 mg/kg, iv or 10 mg/kg, po
# Type: ADME, organism-based, Canis lupus familiaris
# stated-conditions: in vivo
property-label: clearance (mL/min/kg)
Give bare numbers, in mL/min/kg.

[in] Requested read-out: clearance. Entry: O=C(c1nccc2[nH]cnc12)N1CCC(F)(F)[C@@H](Oc2ccc3ccccc3n2)C1
[out] 12

Now for another entry.
[in] Requested read-out: clearance. Entry: O=C(c1cccn2cncc12)N1CCC(F)(F)[C@@H](Oc2ccc3ccccc3n2)C1
[out] 38

----------
# measurement-description: Cmax in rat at 10 mg/kg, po
# Type: ADME, organism-based
# Parameters: dose 10 mg/kg, route oral
# stated-conditions: in vivo
property-label: Cmax (nM)
Give bare numbers, in nM.

[in] Requested read-out: Cmax. Entry: O=C(c1cccn2cncc12)N1CCC(F)(F)[C@@H](Oc2ccc3ccccc3n2)C1
[out] 730

----------
What follows is a record of Ki for Orexin receptor type 2 (Homo sapiens, UniProt O43614).
Give bare numbers, in nM.

[in] Requested read-out: Ki. Entry: O=C(c1ccccc1-n1nccn1)N1CCC(F)(F)C(Oc2ccnc3ccccc23)C1 (stereo not given)
[out] 277

[in] Input COc1ccc(F)c(C(=O)N2CCC(F)(F)[C@@H](Oc3ccc4ccccc4n3)C2)c1F
[out] 1230

[in] Input O=C(c1ccccc1-n1nccn1)N1CCC(F)(F)C(Oc2nccc3ccccc23)C1 (stereo not given)
[out] 2.8

[in] Input O=C(c1cccc(-c2ncc[nH]2)c1)N1CCC(F)(F)[C@@H](Oc2ccc3ccccc3n2)C1
[out] 193

Now for another entry.
[in] Requested read-out: Ki. Entry: O=C(c1ccccc1-n1nccn1)N1CCC(F)(F)C(Oc2ccccn2)C1 (stereo not given)
[out] 1040

----------
# measurement-description: Clearance in rhesus monkey at 2 mg/kg, iv or 10 mg/kg, po
# Format: ADME, organism-based, Macaca mulatta
# stated-conditions: in vivo
property-label: clearance (mL/min/kg)
Answers are plain numbers, in mL/min/kg.

[in] Requested read-out: clearance. Entry: O=C(c1nccc2[nH]cnc12)N1CCC(F)(F)[C@@H](Oc2ccc3ccccc3n2)C1
[out] 25

Now for another entry.
[in] Requested read-out: clearance. Entry: O=C(c1cccn2cncc12)N1CCC(F)(F)[C@@H](Oc2ccc3ccccc3n2)C1
[out] 33

----------
# Tested on: CHO
# measurement-description: Selectivity index, ratio of Ki for human OX2 receptor expressed on CHO cell membrane to Ki for Ile408-Val variant human OX1 receptor expressed on CHO cell membrane
# Type: cell-based
Classification by Ratio Ki follows these ranges: lower bin = under 2, middle bin = from 2 up to 100, upper bin = 100 and over

Example results:
[in] # bin label for O=C(c1ccccc1-n1nccn1)N1CCC(F)(F)C(Oc2nccc3ccccc23)C1 (centres undefined)
[out] lower bin

[in] Input O=C(c1cccn2cncc12)N1CCC(F)(F)[C@@H](Oc2ccc3ccccc3n2)C1
[out] upper bin

---
[in] # bin label for O=C(c1ccccc1-n1nccn1)N1CCC(F)(F)C(Oc2cccc(C(F)(F)F)n2)C1 (centres undefined)
[out] middle bin

[in] Input O=C(c1cccc2ncccc12)N1CCC(F)(F)C(Oc2ccc3ccccc3n2)C1 (racemic)
[out] middle bin

[in] Input O=C(c1ccccc1-n1nccn1)N1CCC(F)(F)C(Oc2cc(C(F)(F)F)ccn2)C1 (centres undefined)
[out] lower bin

[in] Input C[C@@H]1CC[C@@H](Oc2ccc3ccccc3n2)CN1C(=O)c1ccccc1-n1nccn1
[out] middle bin

[in] Input Cc1ccc(-c2ncccn2)c(C(=O)N2CC(COc3ccc(F)cn3)CC[C@H]2C)c1 (some centres undefined)
[out] lower bin

----------
Hi there, I'd appreciate the recorded half-life for every entry that follows.
# measurement-description: Half life in dog at 0.5 mg/kg, iv or 10 mg/kg, po
# Format: ADME, organism-based, Canis lupus familiaris
# stated-conditions: in vivo
One number for each entry, in min.

[in] Requested read-out: half-life. Entry: O=C(c1nccc2[nH]cnc12)N1CCC(F)(F)[C@@H](Oc2ccc3ccccc3n2)C1
[out] 60

Now for another entry.
[in] Requested read-out: half-life. Entry: O=C(c1cccn2cncc12)N1CCC(F)(F)[C@@H](Oc2ccc3ccccc3n2)C1
[out] 30

----------
# measurement-description: AUC in rat at 10 mg/kg, po
# Type: ADME, organism-based
# stated-conditions: in vivo
property-label: AUC (µM·h)
Numbers only, in µM·h.

[in] Requested read-out: AUC. Entry: O=C(c1cccn2cncc12)N1CCC(F)(F)[C@@H](Oc2ccc3ccccc3n2)C1
[out] 0.77

----------
# measurement-description: Intrinsic clearance in rat liver microsomes
# Format: ADME
# stated-conditions: read-out: CLH
# strict inequality: CLint scaled < 800 mL/min/kg yields MET, everything else yields NOT MET

Example results:
[in] Please indicate whether the reported CLint scaled of O=C(c1cccc(-n2ccnn2)c1)N1CCC(F)(F)[C@@H](Oc2ccc3ccccc3n2)C1 is strictly below 800 mL/min/kg.
[out] NOT MET

[in] Input O=C(c1cccn2cncc12)N1CCC(F)(F)[C@@H](Oc2ccc3ccccc3n2)C1
[out] MET

[in] Input O=C(c1cccc2[nH]cnc12)N1CCC(F)(F)[C@@H](Oc2ccc3ccccc3n2)C1
[out] NOT MET

[in] Input O=C(c1nccc2[nH]cnc12)N1CCC(F)(F)[C@@H](Oc2ccc3ccccc3n2)C1
[out] MET

From here, focus on the item given below.
[in] Please indicate whether the reported CLint scaled of O=C(c1cccc2[nH]ncc12)N1CCC(F)(F)[C@@H](Oc2ccc3ccccc3n2)C1 is strictly below 800 mL/min/kg.
[out] MET

----------
# measurement-description: Protein binding in human plasma
# Assay type: ADME, cell-free
# stated-conditions: read-out: PPB (converted)
property-label: fraction unbound
Answers are plain numbers.

[in] Requested read-out: fraction unbound. Entry: O=C(c1cccn2cncc12)N1CCC(F)(F)[C@@H](Oc2ccc3ccccc3n2)C1
[out] 0.11

Now for another entry.
[in] Requested read-out: fraction unbound. Entry: O=C(c1nccc2[nH]cnc12)N1CCC(F)(F)[C@@H](Oc2ccc3ccccc3n2)C1
[out] 0.14

----------
# measurement-description: Intrinsic clearance in rhesus monkey liver microsomes
# Assay type: ADME, Macaca mulatta
# stated-conditions: read-out: CLH
Hi there, I'd appreciate the recorded CLint scaled for every entry that follows.

[in] Requested read-out: CLint scaled. Entry: O=C(c1cccn2cncc12)N1CCC(F)(F)[C@@H](Oc2ccc3ccccc3n2)C1
[out] 775 mL/min/kg

Now for another entry.
[in] Requested read-out: CLint scaled. Entry: O=C(c1nccc2[nH]cnc12)N1CCC(F)(F)[C@@H](Oc2ccc3ccccc3n2)C1
[out] 189 mL/min/kg
